Biological target: Human complement C1s enzyme (Homo sapiens)
Construct: purified from human serum, Complement Technology, Inc; purchased Complement Technology, Inc; host or cells: human serum (plasma-derived native protein)
Sequence (P09871 438-688 limits assumed): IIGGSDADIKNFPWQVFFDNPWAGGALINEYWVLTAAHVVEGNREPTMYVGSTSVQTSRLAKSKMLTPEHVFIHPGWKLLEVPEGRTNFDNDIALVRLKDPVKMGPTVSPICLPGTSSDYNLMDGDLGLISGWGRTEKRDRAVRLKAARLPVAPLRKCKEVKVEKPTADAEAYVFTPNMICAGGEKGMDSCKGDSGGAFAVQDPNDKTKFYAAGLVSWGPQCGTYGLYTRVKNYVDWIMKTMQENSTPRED
Sequence (P09871 16-437 partner limits assumed): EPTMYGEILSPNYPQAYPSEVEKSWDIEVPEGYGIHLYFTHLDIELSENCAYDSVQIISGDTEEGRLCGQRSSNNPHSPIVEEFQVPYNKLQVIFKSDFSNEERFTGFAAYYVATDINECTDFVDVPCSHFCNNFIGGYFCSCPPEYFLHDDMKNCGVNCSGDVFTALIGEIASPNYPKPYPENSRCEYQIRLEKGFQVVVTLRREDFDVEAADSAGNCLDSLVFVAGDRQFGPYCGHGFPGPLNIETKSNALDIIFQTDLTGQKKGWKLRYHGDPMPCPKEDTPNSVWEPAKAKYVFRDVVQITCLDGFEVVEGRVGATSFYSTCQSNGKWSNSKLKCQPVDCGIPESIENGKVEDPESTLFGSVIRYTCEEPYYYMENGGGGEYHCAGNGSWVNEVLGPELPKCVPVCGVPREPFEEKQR
Experiment: Human C1s enzyme assay
Format: biochemical
Conditions: human complement C1s enzyme 1.16 nM, substrate Z-L-Lys-SBzl, A405; read-out: IC50 (Stars)
pIC50: −log10 of the molar value.
readout: pIC50

Prompt: Name the recorded pIC50 for C[C@H](C(=O)NCc1cc2cnccc2[nH]1)n1c(-c2ccccc2F)ncc(N[C@H](C)c2ccc3oc4ccccc4c3c2)c1=O (single isomer, unassigned) .
Completion: < 6.00

Give me pIC50 for each of these compounds, listed below.
1. CS(=O)(=O)c1ccc(CCCNc2cnc(-c3ccccc3)n(CC(=O)NCc3cc4cnccc4[nH]3)c2=O)cc1
2. O=C(Cn1c(-c2ccccc2)ncc(NCc2ccc3oc4ccccc4c3c2)c1=O)NCc1cc2cnccc2s1
3. C[C@@H](Nc1cnc(-c2cccc(Cl)c2)n(CC(=O)NCc2cc3cnccc3[nH]2)c1=O)c1ccc2oc3ccccc3c2c1

Completion:
> 7.00
> 7.00
> 7.00

###

Molecular target: Human complement C1s enzyme (Homo sapiens, UniProt P09871)
Construct: purified from human serum, Complement Technology, Inc
Sequence (P09871 438-688 limits assumed): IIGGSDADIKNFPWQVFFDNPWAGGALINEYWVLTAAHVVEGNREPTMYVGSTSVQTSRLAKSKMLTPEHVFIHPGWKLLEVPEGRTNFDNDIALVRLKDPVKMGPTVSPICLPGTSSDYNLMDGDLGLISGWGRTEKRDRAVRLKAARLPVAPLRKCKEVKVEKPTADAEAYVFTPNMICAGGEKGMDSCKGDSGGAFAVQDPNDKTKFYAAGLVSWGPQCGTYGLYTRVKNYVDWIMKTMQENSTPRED
Sequence (P09871 16-437 partner limits assumed): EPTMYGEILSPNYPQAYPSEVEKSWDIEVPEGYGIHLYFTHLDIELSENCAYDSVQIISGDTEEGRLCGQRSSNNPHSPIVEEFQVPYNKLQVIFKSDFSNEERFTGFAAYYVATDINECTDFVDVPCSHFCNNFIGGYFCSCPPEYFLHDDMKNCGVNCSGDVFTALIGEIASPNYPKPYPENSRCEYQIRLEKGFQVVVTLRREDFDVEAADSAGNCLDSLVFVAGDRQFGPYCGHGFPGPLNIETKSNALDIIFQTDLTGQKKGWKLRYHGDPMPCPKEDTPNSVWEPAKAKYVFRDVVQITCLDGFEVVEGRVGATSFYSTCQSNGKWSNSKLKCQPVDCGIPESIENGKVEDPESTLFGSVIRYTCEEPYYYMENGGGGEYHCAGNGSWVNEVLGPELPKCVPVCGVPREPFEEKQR
Assay: Human C1s enzyme assay
Conditions: human complement C1s enzyme 1.16 nM, substrate Z-L-Lys-SBzl, A405; read-out: IC50 (Stars)
pIC50: −log10 of the molar value.
Would you kindly list pIC50 for each of these molecules?

Prompt: Name the recorded pIC50 for O=C(Cn1c(-c2ccccc2)ncc(NC(=O)c2ccc3oc4ccccc4c3c2)c1=O)NCc1cc2cnccc2[nH]1 .
Completion: > 7.00

Prompt: Ok, now C[C@@H](Nc1cnc(N2CCC(O)C2)n(CC(=O)NCc2cc3cnccc3[nH]2)c1=O)c1ccc2oc3ccccc3c2c1 (stereo partly shown)
Completion: 6.00 to 7.00

Prompt: Ok, now O=C(Cn1c(-c2ccccc2)ncc(NC(=O)c2csc(-c3ccccc3)c2)c1=O)NCc1cc2cnccc2[nH]1
Completion: > 7.00

Prompt: Ok, now O=C(Cn1c(-c2ccccc2)ncc(NCc2cc(-c3ccccc3)no2)c1=O)NCc1cc2cnccc2[nH]1
Completion: > 7.00

Prompt: Ok, now O=C(Cn1c(-c2ccc(O[C@@H]3CO[C@H]4[C@@H]3OC[C@H]4O)cc2)ncc(NCCCc2ccccc2)c1=O)NCc1cc2cnccc2[nH]1
Completion: > 7.00

Prompt: Ok, now O=C(NCCn1c(-c2ccccc2)ncc(NCc2ccc3oc4ccccc4c3c2)c1=O)c1cc2cnccc2[nH]1
Completion: < 6.00

Give me pIC50 for each of these molecules, listed below.
1. O=C(Cn1c(-c2ccccc2)ncc(NCCCc2ccc(C(=O)c3ccccc3)cc2)c1=O)NCc1cc2cnccc2[nH]1
2. C[C@@H](Nc1cnc(N2CC3CC3C2)n(CC(=O)NCc2cc3cnccc3[nH]2)c1=O)c1ccc2oc3ccccc3c2c1 (stereo partly shown)
3. O=C(Cn1c(-c2ccc(S(F)(F)(F)(F)F)cc2)ncc(NCCCc2ccccc2)c1=O)NCc1cc2cnccc2[nH]1
4. O=C(Cn1c(-c2ccccc2)ncc(NCCCCOc2ccccc2)c1=O)NCc1cc2cnccc2[nH]1
5. C[C@@H](Nc1cnc(-c2ccncc2)n(CC(=O)NCc2cc3cnccc3[nH]2)c1=O)c1ccc2oc3ccccc3c2c1
6. O=C(Cn1c(-c2ccccc2)ncc(NCc2ccc3c(c2)-c2ccccc2C3(F)F)c1=O)NCc1cc2cnccc2[nH]1
7. Cc1ncc(-c2ncc(N[C@H](C)c3ccc4oc5ccccc5c4c3)c(=O)n2CC(=O)NCc2cc3cnccc3[nH]2)cn1

Completion:
1. > 7.00
2. < 6.00
3. > 7.00
4. > 7.00
5. > 7.00
6. > 7.00
7. 6.00 to 7.00
